System: OVCAR-8 ovarian
Test: NCI tumour cell line growth inhibition, 48 h; in the data active means GI50 below about 0.43 µM; inactive means the rest
Outcomes: True (active), False (inactive)

> print(dat)
                                    compound     study.target  group
 1  CCOC(=O)c1c2c(n(Cc3ccccc3)c1C)-c1ccccc1C(=O)C2=O  OVCAR-8 ovarian  False
 2  CN(C)CCOc1ccc(/C(=C(/CCCl)c2ccccc2)c2ccccc2)cc1  OVCAR-8 ovarian  False
 3  CC(C)(C)c1[nH]cnc1/C=c1\[nH]c(=O)/c(=C/c2ccccc2)[nH]c1=O  OVCAR-8 ovarian   True
 4  COc1ccc2c(c1)C(=O)C(=O)c1cc(O)c(OC)c(OC)c1-2  OVCAR-8 ovarian  False
 5  COc1ccc2nc3cc(Cl)ccc3c(N3CCN(c4ccnc(N5CCOCC5)n4)CC3)c2c1  OVCAR-8 ovarian  False
 6  O=C(Nc1ccc(CN2CCOCC2)cc1)c1[nH]ncc1Nc1ncnc2sccc12  OVCAR-8 ovarian  False
 7        O=C1c2ccccc2C(=Cc2ccccc2)c2ccccc21  OVCAR-8 ovarian  False
 8  Cn1c(O)c(C(/C=C/c2ccccc2)=NCCN=C(/C=C/c2ccccc2)c2c(O)n(C)c(=O)n(C)c2=O)c(=O)n(C)c1=O  OVCAR-8 ovarian  False
 9        O=C(CF)N(O)c1ccc(/C=C/c2ccccc2)cc1  OVCAR-8 ovarian  False
10  CC/C=C\C/C=C\C[C@H](O)C/C=C1/C(=O)C=C[C@@H]1C/C=C\CCCC(=O)O  OVCAR-8 ovarian  False
11  O=[N+]([O-])c1ccc2c(N3CCC(CCCC4CCN(c5ncnc6cc([N+](=O)[O-])ccc56)CC4)CC3)ncnc2c1  OVCAR-8 ovarian  False
12  CN(C)c1ncnc2c1nnn2C1OC(CO)C(O)C1O (centres undefined)  OVCAR-8 ovarian   True
13  CCCC[N+](CCCC)=c1ccc2nc3c(C)cc(N(CC)CC)cc3sc-2c1  OVCAR-8 ovarian   True
14  COc1cccc2c1-c1c(c3ccc([N+](=O)[O-])cc3c(=O)n1CCCCl)C2=O  OVCAR-8 ovarian  False
15  Cc1cccc(C(=O)/C=C/SC(=NC#N)SCc2ccccc2)c1  OVCAR-8 ovarian  False
16  COc1ccc(C2=NN(C(=O)c3cc(OC)c(OC)c(OC)c3)C(c3ccc(Cl)cc3)C2)cc1OC (centres undefined)  OVCAR-8 ovarian  False
17  N#Cc1ccc(N2Cc3ccccc3OC3=C2C(=O)c2c(O)ccc(O)c2C3=O)cc1  OVCAR-8 ovarian   True
18  O=C(Nc1cccc(Oc2nnc(Cl)c3ccccc23)c1)Nc1ccc(Cl)c(C(F)(F)F)c1  OVCAR-8 ovarian  False
19  CC(=O)c1cc2c(cc1Nc1c3ccccc3nc3occ(Cl)c13)OCO2  OVCAR-8 ovarian   True
20  C=CC(C=O)C1(O)CCOC(=O)/C1=C\N (centres undefined)  OVCAR-8 ovarian  False
21  O=C(Nc1ccc(Oc2ccc3nc(NC(=O)c4ccccc4)[nH]c3c2)cc1)Nc1cc(C(F)(F)F)ccc1F  OVCAR-8 ovarian  False
22  COc1cc2nccc(Oc3ccc(NC(=O)C4(C(=O)Nc5ccc(F)cc5)CC4)cc3)c2cc1Oc1ccc(N)cn1  OVCAR-8 ovarian  False
23  CCN1C(=O)NC(=O)C(C)(N2C(=O)c3c(F)c(F)c(F)c(F)c3C2=O)C1=O (centres undefined)  OVCAR-8 ovarian  False
24  Oc1ccc(O)c(-c2cc(-c3ccccc3)nn2-c2ccccc2)c1  OVCAR-8 ovarian  False
